# target: RARβ (Homo sapiens, UniProt P10826)
# Sequence (P10826 183-455 limits assumed): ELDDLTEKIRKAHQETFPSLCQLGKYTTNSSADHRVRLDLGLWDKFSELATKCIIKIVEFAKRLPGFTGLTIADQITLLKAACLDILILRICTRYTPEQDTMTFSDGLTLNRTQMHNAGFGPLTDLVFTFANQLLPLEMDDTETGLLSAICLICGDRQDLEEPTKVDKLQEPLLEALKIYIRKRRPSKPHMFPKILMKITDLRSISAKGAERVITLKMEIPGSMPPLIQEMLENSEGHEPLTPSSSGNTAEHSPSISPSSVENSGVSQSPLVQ
# assay_protocol: chimeric receptor transactivation assay, RARβ
# experimental_context: chimeric receptor transactivation; read-out: RAR EC50 β
metric_name: EC50 (nM)
Reply numerically in nM, unit not repeated.

# annotated cases, reported EC50 shown
{"compound": "CC1(C)CCCc2ccc(C(/C=C/c3ccc(C(=O)O)cc3F)=N/O)cc21", "EC50 / nM": 62}
{"compound": "CC1=CCC(C)(C)c2cc(C(/C=C/c3ccc(C(=O)O)cc3)=N/O)ccc21", "EC50 / nM": 54}
{"compound": "CC1(C)CCCc2cc(C(C=Cc3ccc(C(=O)O)cc3)=NO)ccc21 [drawing 17]", "EC50 / nM": 173}
{"compound": "CC1(C)CCC(C)(C)c2cc(C(C=Cc3ccc(C(=O)O)cc3F)=NO)ccc21 [drawing 11]", "EC50 / nM": 118}
{"compound": "CC1=CCC(C)(C)c2cc(C(/C=C/c3ccc(C(=O)O)cc3)=N\\O)ccc21", "EC50 / nM": 94}
{"compound": "CCCCCCCN1C(=O)CC(C)(C)c2cc(C(/C=C/c3ccc(C(=O)O)cc3)=N\\O)ccc21", "EC50 / nM": 473}

Param item = CC1(C)CC(C)(C)c2cc(C(C=Cc3ccc(C(=O)O)cc3)=NO)ccc2O1 [drawing 25] ; retrieve measured EC50. 93

What does the data say about its EC50? Entry: Cc1cc2c(cc1C(C=Cc1ccc(C(=O)O)cc1)=NO)C(C)(C)CCC2(C)C [drawing 37] 157

Query: EC50; subject: CC1(C)CCCc2ccc(C(C=Cc3ccc(C(=O)O)cc3)=NO)cc21 [drawing 12] 65

----------
# target: RARγ (Homo sapiens)
# Sequence (P13631 whole entry, species assumed): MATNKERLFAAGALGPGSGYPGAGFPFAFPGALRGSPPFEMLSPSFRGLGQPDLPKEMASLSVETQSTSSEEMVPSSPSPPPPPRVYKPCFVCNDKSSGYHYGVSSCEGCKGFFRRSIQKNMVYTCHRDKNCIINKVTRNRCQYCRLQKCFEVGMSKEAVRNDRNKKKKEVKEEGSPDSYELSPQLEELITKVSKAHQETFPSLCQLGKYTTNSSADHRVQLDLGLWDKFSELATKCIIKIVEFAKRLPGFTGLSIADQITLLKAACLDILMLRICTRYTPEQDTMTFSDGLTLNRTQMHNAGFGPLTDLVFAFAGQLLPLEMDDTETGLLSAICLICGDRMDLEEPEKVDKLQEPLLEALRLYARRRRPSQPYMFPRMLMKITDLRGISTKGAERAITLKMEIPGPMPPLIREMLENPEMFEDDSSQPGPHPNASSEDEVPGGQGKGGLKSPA
metric_name: Ki (nM)
Respond numerically; units are nM and should not be typed.

Recorded Ki, per entry:
{"compound": "CC1=CCC(C)(C)c2cc(C(/C=C/c3ccc(C(=O)O)cc3F)=N/O)ccc21", "Ki, nM": 256}
{"compound": "CC1=CCC(C)(C)c2cc(C(/C=C/c3ccc(C(=O)O)cc3F)=N\\O)ccc21", "Ki, nM": 28}
{"compound": "CC1(C)CC(C)(C)c2cc(C(C=Cc3ccc(C(=O)O)cc3)=NO)ccc2O1 [drawing 25]", "Ki, nM": 10000}
{"compound": "CC1(C)CCSc2ccc(C(C=Cc3ccc(C(=O)O)cc3)=NO)cc21 [drawing 18]", "Ki, nM": 6}
{"compound": "CC1(C)CCC(C)(C)c2nc(C(C=Cc3ccc(C(=O)O)cc3)=NO)cnc21 [drawing 34]", "Ki, nM": 240}

Query (compound): CC1(C)CC(C)(C)c2cc(C(C=Cc3ccc(C(=O)O)cc3F)=NO)ccc21 ; field requested: Ki 25

# Ki lookup, item CC1=CCC(C)(C)c2cc(C(/C=C/c3ccc(C(=O)O)cc3)=N/O)ccc21 6

May I ask what Ki has been recorded for CC1(C)CCC(C)(C)c2cc(C(C=Cc3ccc(C(=O)O)cc3F)=NO)ccc21 [drawing 10] ? 4

Given the compound Cc1cc2c(cc1C(C=Cc1ccc(C(=O)O)cc1)=NO)C(C)(C)CCC2(C)C [drawing 36] , what is its reported Ki? 583
